Protocol Summary: Half life in human liver microsomes at 2 uM
Format: ADME, Microsome
Please go through the items and note down their log10(half-life at 2 µM).
Kindly note that the scale is log10 and the underlying half-life at 2 µM is in min.

(Q) Bench note: what log10(half-life at 2 µM) did CCC1=C(c2nc(C3CCCCC3)co2)[C@H](c2ccc(O)c(Cl)c2)NC(=O)N1 show?
(A) 2.12

(Q) Bench note: what log10(half-life at 2 µM) did CCC1=C(C(=O)OCC2CCCCC2)[C@H](c2cccc(O)c2)NC(=O)N1 show?
(A) 1.04

(Q) Bench note: what log10(half-life at 2 µM) did CCC1=C(c2nc(C3CCCCC3)cs2)[C@H](c2ccc(O)c(Cl)c2)NC(=O)N1 show?
(A) 2.83

(Q) Bench note: what log10(half-life at 2 µM) did CCC1=C(C(=O)CCC2CCCCC2)[C@H](c2ccc(O)c(Cl)c2)NC(=O)N1 show?
(A) 1.34

(Q) Bench note: what log10(half-life at 2 µM) did CCC1=C(C(=O)CC2CCCCC2)[C@H](c2ccc(O)c(Cl)c2)NC(=O)N1 show?
(A) 1.26

(Q) Bench note: what log10(half-life at 2 µM) did CCC1=C(C(=O)OCC2CCCCC2)[C@H](c2ccc(O)c(Cl)c2)NC(=O)N1 show?
(A) 1.56

(Q) Bench note: what log10(half-life at 2 µM) did CCC1=C(C(=O)CC2CCC(CC)CC2)[C@H](c2ccc(O)c(Cl)c2)NC(=O)N1 (some centres not stated) show?
(A) 1.38
